# assay procedure: Inhibition of isolation-induced aggression in mice
# Assay type: in vivo
# condition context: Mus musculus, ip, read-out: Inhibitory ED50 (effective dose inhibiting 50% of the aggressive animals)
measured endpoint: ED50 (mg/kg)
Numbers only here, please. The scale is mg/kg.

Here is how some compounds turned out for ED50.
# smiles entry, value measured
measured = [
    ("Cc1ccccc1N1CCN(CCCN2C(=O)CN(Cc3ccccn3)CC2=O)CC1.Cl.Cl.Cl", 6.78),
    ("Cl.Cl.Cl.O=C1CN(Cc2ccccn2)CC(=O)N1CCCN1CCN(c2ccccc2Cl)CC1", 6.11),
    ("O=C1CN(Cc2ccccc2)CC(=O)N1CCCN1CCN(c2ccc(F)cc2)CC1", 8.6),
    ("COc1ccccc1CN1CC(=O)N(CCCCN2CCN(c3cccc(C(F)(F)F)c3)CC2)C(=O)C1.Cl.Cl", 4.74),
]

Item under review: O=C1CN(Cc2ccccc2F)CC(=O)N1CCCN1CCN(c2cccc(C(F)(F)F)c2)CC1 . Reported ED50?
7.64

If you can, please state the reported ED50 value of O=C(O)C(=O)O.O=C(O)C(=O)O.O=C1CN(Cc2ccccn2)CC(=O)N1CCCN1CCN(c2cccc(C(F)(F)F)c2)CC1 .
11.1
